subject_of_test: T1, SHF SH2 domain (human, UniProt Q7M4L6 323-418)
T1 construct: SHF, human; source: bacterial expression, purified
T1 sequence (looked up): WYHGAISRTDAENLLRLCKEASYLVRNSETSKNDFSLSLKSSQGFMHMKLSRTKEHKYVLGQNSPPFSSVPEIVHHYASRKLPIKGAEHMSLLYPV
run_description: peptide or protein array; SH2/PTB proteins spotted on aldehyde slides, rhodamine peptide titrated in buffer B (20 mM HEPES, 100 mM KCl, 0.1% Tween-20, 5 mM DTT, pH 7.8), 1 h at room temperature; replicate assays
condition_summary: both partners purified
Non-standard residues stand in square brackets, D forms with d. No end group written: not given here. pY = N[C@@H](Cc1ccc(OP(=O)(O)O)cc1)C(=O)O; Rhodamine = not defined here
property_name: pKd
Quick note: pKd values are minus log10 of concentrations in mol/L.

INPUT: What measured pKd goes with Rhodamine-ETDG[pY]VAPLTCSD (reading uncertain) [ErbB2 pY1127 phosphopeptide, rhodamine-labelled, for protein microarrays] ?
OUTPUT: 5.99
